Cited source for all entries: patent US20170081400A1

Reported TL1A Binding Level (Late) is given for each of the following binders.
- System tested: T1, human TL1A extracellular domain with N-terminal HIS and FLAG tag (human, UniProt O95150 72-251)
- T1 construct: the whole entry is named
- T1 sequence: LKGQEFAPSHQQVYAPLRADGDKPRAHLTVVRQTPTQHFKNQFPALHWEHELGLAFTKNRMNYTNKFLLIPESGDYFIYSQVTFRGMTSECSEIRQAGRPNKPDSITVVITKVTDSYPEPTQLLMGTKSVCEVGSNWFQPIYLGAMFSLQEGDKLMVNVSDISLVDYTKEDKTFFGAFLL
- Experiment: SPR Run 4, purified Ab captured on Protein A, TL1A 5 ug/mL, timepoint 220
Write down the numeric answer in RU and omit the unit.

Below are worked cases with known answers.
{"Binder": "320-366 (antibody, human IgG1, name in Kabat numbering, V domains shown, human IgG1, lambda) VH: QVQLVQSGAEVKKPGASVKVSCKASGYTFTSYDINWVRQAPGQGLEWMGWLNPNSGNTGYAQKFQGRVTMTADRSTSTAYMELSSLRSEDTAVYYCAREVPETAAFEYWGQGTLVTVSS VL: QSVLTQPPSVSGAPGQRVTISCTSSSSDIGAGLGVHWYQQLPGTAPKLLIEGYYNRPSGVPDRFSGSKSGTSASLTITGLLPEDEGDYYCQSYDGTLDALFGGGTKLTVLG", "TL1A Binding Level (Late) / RU": 31}
{"Binder": "320-352 (antibody, human IgG1, name in Kabat numbering, V domains shown, human IgG1, lambda) VH: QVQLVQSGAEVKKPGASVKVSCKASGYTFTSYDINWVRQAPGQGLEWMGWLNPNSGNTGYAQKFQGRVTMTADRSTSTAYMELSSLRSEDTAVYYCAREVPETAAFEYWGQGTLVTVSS VL: QSVLTQPPSVSGAPGQRVTISCTSSSSDIGAGLGVHWYQQLPGTAPKLLIEGYYNRPSGVPDRFSGSKSGTSASLTITGLLPEDEGDYYCQSYDGDLSALFGGGTKLTVLG", "TL1A Binding Level (Late) / RU": 63}
{"Binder": "320-358 (antibody, human IgG1, name in Kabat numbering, V domains shown, human IgG1, lambda) VH: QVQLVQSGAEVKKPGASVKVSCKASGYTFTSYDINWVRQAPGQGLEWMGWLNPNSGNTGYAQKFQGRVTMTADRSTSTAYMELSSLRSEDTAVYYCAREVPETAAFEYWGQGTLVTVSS VL: QSVLTQPPSVSGAPGQRVTISCTSSSSDIGAGLGVHWYQQLPGTAPKLLIEGYYNRPSGVPDRFSGSKSGTSASLTITGLLPEDEGDYYCQSYDGTASALFGGGTKLTVLG", "TL1A Binding Level (Late) / RU": 50}
{"Binder": "320-333 (antibody, human IgG1, name in Kabat numbering, V domains shown, human IgG1, lambda) VH: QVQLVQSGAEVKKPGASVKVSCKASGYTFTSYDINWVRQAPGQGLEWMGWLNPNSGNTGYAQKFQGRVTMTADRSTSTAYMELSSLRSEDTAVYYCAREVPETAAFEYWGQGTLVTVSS VL: QSVLTQPPSVSGAPGQRVTISCTSSSSDIGAGLGVHWYQQLPGTAPKLLIEGYYNRPSGVPDRFSGSKSGTSASLTITGLLPEDEGDYYCQSYSGTLSALFGGGTKLTVLG", "TL1A Binding Level (Late) / RU": 67}
{"Binder": "320-350 (antibody, human IgG1, name in Kabat numbering, V domains shown, human IgG1, lambda) VH: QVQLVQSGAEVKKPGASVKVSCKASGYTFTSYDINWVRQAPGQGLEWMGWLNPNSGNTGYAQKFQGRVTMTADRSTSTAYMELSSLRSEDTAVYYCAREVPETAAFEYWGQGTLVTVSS VL: QSVLTQPPSVSGAPGQRVTISCTSSSSDIGAGLGVHWYQQLPGTAPKLLIEGYYNRPSGVPDRFSGSKSGTSASLTITGLLPEDEGDYYCQSYDGSLSALFGGGTKLTVLG", "TL1A Binding Level (Late) / RU": 118}

Reported TL1A Binding Level (Late) for 320-331 (antibody, human IgG1, name in Kabat numbering, V domains shown, human IgG1, lambda) VH: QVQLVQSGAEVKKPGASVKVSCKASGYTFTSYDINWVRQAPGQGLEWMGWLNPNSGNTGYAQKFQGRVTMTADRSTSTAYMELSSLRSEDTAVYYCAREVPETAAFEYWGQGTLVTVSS VL: QSVLTQPPSVSGAPGQRVTISCTSSSSDIGAGLGVHWYQQLPGTAPKLLIEGYYNRPSGVPDRFSGSKSGTSASLTITGLLPEDEGDYYCQSWDGTLSALFGGGTKLTVLG was 176

Reported TL1A Binding Level (Late) for 320-367 (antibody, human IgG1, name in Kabat numbering, V domains shown, human IgG1, lambda) VH: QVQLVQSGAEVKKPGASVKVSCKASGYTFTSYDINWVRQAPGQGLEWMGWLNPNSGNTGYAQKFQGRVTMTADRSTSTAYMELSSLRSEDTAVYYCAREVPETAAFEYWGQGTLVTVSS VL: QSVLTQPPSVSGAPGQRVTISCTSSSSDIGAGLGVHWYQQLPGTAPKLLIEGYYNRPSGVPDRFSGSKSGTSASLTITGLLPEDEGDYYCQSYDGTLHALFGGGTKLTVLG was 116

Reported TL1A Binding Level (Late) for 320-349 (antibody, human IgG1, name in Kabat numbering, V domains shown, human IgG1, lambda) VH: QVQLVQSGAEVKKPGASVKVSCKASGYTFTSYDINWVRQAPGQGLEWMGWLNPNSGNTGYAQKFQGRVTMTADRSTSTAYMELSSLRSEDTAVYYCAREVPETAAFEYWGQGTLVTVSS VL: QSVLTQPPSVSGAPGQRVTISCTSSSSDIGAGLGVHWYQQLPGTAPKLLIEGYYNRPSGVPDRFSGSKSGTSASLTITGLLPEDEGDYYCQSYDGALSALFGGGTKLTVLG was 88

Reported TL1A Binding Level (Late) for 320-357 (antibody, human IgG1, name in Kabat numbering, V domains shown, human IgG1, lambda) VH: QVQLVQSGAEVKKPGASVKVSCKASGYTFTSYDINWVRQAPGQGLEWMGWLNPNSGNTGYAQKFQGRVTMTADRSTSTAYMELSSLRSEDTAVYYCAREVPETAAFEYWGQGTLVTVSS VL: QSVLTQPPSVSGAPGQRVTISCTSSSSDIGAGLGVHWYQQLPGTAPKLLIEGYYNRPSGVPDRFSGSKSGTSASLTITGLLPEDEGDYYCQSYDGYLSALFGGGTKLTVLG was 91
